# Assay Notes: in vitro
# Stated Conditions: human, human kidney microsomes
Structures can show the parent of a compound that is named as a salt.
Measured Property: remaining at 1 h, 1 μM (%)

Compound	Observed Result
CN(C)CCCOc1nn(Cc2ccccc2)c2ccccc12 [Benzydamine hydrochloride, benzydamine hydrochloride]	54.2

---

# Assay Notes: in vitro
# Stated Conditions: human, human kidney microsomes
Where a name gives a salt, the structure may show the parent alone.

Compound	Readout Units	half-life at 1 μM
CN(C)CCCOc1nn(Cc2ccccc2)c2ccccc12 [Benzydamine hydrochloride, benzydamine hydrochloride]	h	1.1

---

# Assay Notes: in vitro
# Stated Conditions: human, human kidney microsomes
Structures can show the parent of a compound that is named as a salt.
Measured Property: remaining at 0.25 h, 1 μM (%)

Molecule	Readout Units	Observed Result
CN(C)CCCOc1nn(Cc2ccccc2)c2ccccc12 [Benzydamine hydrochloride, benzydamine hydrochloride]	%	83.1

---

# Assay Notes: in vitro
# Stated Conditions: human, human kidney microsomes
Structures can show the parent of a compound that is named as a salt.

Molecule	Readout Units	remaining at 0.5 h, 1 μM
CN(C)CCCOc1nn(Cc2ccccc2)c2ccccc12 [Benzydamine hydrochloride, benzydamine hydrochloride]	%	70.8

Provenance of the data: patent US20240279298A1
